- Test description: binders of probe aHhip on microarray, primary screen, stem cell growth factor project, biochemical, small-molecule microarray, fluorescence 635/667 (AID 1087);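 also: score merges spot fluorescence at 667nm with spot signal to noise ratio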
- Settings: higher = more signal
Outcome measure: composite z-score

>>> quantitative_readout("CCOC(=O)[C@H](CC(C)C)NC(=O)CCC1CC(OC(=O)NCc2cccc3ccccc23)CC2(CCCC(COC(=O)NCCc3ccccc3OC)O2)O1 (stereo not given in full)")
-0.134
>>> quantitative_readout("CC(C)=NOCc1ccc(-c2cc(-c3ccccc3)no2)cc1")
-0.0296
>>> quantitative_readout("C[C@@H]1C=CCC(=O)OC[C@H](C)C(=O)N2CCC[C@H]2C(=O)OC1")
-0.0296
>>> quantitative_readout("COC(=O)[C@H](C)NC(=O)CCC1CC(OC(=O)NCc2ccc3c(c2)OCO3)CC2(CCCC(COC(=O)NCCOc3ccccc3)O2)O1 (stereo not given in full)")
-0.479
>>> quantitative_readout("COCCCNC(=O)[C@]1(CCC(=O)OC(C)(C)C)N=C(c2ccc(OCCCO)cc2)O[C@@H]1c1ccccc1N=[N+]=[N-]")
0.107
>>> quantitative_readout("CCOC(=O)NN=C1C[C@@H](O)[C@@H](O)[C@@H]2[C@@H]3C(=O)N(C4CCCCC4)C(=O)[C@@H]3CC[C@H]12")
-0.0994
>>> quantitative_readout("CCN1C(=O)[C@H]2[C@H]3[C@H](O)[C@H](O)CC(=NOC[C@@H](C)[C@H](OCc4ccccc4)C(C)C)[C@@H]3CC[C@H]2C1=O")
-0.169
>>> quantitative_readout("C[C@@H](c1ccccc1)N1C(=O)[C@H]2[C@H]3[C@H](O)[C@H](O)CC(=NNC(=O)OCc4ccccc4)[C@H]3CC[C@H]2C1=O")
-0.236
>>> quantitative_readout("O=C1[C@H]2[C@H]3[C@H](O)[C@H](O)CC(=NOCc4ccccc4)[C@@H]3CC[C@H]2C(=O)N1C1CCCCC1")
0.0024
>>> quantitative_readout("O=C1C[C@@H](O)[C@@H](O)[C@@H]2[C@@H]3C(=O)N(c4ccc(F)cc4F)C(=O)[C@@H]3CC[C@@H]12")
0.144
>>> quantitative_readout("COC(=O)C1(C)C=C2C(=C(c3ccccc3)C(=O)C2C)CN1 (stereo not given)")
0.23
>>> quantitative_readout("CC(C)(C)N1CC=CC23O[C@@H]4C=CCCOC(=O)C4[C@H]2C(=O)N(CCCCCO)[C@@H]3C1=O (stereo not given in full)")
0.0156
>>> quantitative_readout("CCOC(=O)CCN1C(=O)[C@H]2[C@H]3[C@H](O)[C@H](O)CC(=NOC[C@@H](O)COCc4ccco4)[C@H]3CC[C@H]2C1=O")
0.28
>>> quantitative_readout("CC(C)(C)N1C(=O)[C@H]2[C@H]3[C@H](O)[C@H](O)CC(=NO[C@@H]4O[C@H](CO)[C@@H](O)[C@H](O)[C@H]4O)[C@@H]3CC[C@H]2C1=O")
-0.0994
>>> quantitative_readout("COC(=O)[C@@]1(Cc2ccc(OC)cc2)[C@H]2c3cc(C(=O)N4CCCC4)n(Cc4cc(F)c(F)c(F)c4)c3C[C@H]2CN1C(=O)c1ccccc1")
1.88
>>> quantitative_readout("O=C(CS)NCCCCCNC(=O)[C@@H]1C[C@@H]2C(=O)N[C@@H](Cc3ccccc3)C(=O)N2[C@@H]1c1ccc(O)cc1")
-0.0994
>>> quantitative_readout("C#CCCCON=C1C[C@@H](O)[C@@H](O)[C@@H]2[C@@H]3C(=O)N([C@@H](C)c4ccccc4)C(=O)[C@@H]3CC[C@H]12")
-0.0994
>>> quantitative_readout("CCCNC(=O)OC[C@H]1O[C@H](CCON=C2[C@H]3CCn4c(=O)n(-c5ccccc5)c(=O)n4[C@H]3[C@H](O)[C@@H]3O[C@H]23)C=C[C@@H]1Oc1ccc(OC)cc1")
-0.0994
>>> quantitative_readout("CCCC[C@@H]1C[C@H]1[C@@H](NS(=O)(=O)c1cccc2cccnc12)c1ccc(-c2ccccc2)cc1")
-0.0123
>>> quantitative_readout("COc1ccc(O[C@H]2C=C[C@@H](c3ccccc3)O[C@@H]2CON=C[C@@H](C)[C@H](OCc2ccccc2)C(C)C)cc1")
-0.602
>>> quantitative_readout("CCOC(=O)C1=CC[C@H]2C(=O)N(CC)C(=O)[C@@H]12")
0.176
>>> quantitative_readout("CCOC(=O)[C@H](CC(C)C)NC(=O)CCC1CC(OC(=O)NCCc2ccc(F)cc2)CC2(CCCC(COC(=O)NCc3ccccc3)O2)O1 (stereo not given in full)")
0.0695
>>> quantitative_readout("CC(C)C[C@@H]1NC(=O)[C@H]2C[C@@H](C(=O)NCCCCCCN(C)C)[C@@H](c3cccc(OCCO)c3)N2C1=O")
-0.156
>>> quantitative_readout("COc1ccc(-c2ccc3c(n2)CCCN3CC(O)CN2CCCc3nc(C)c(C)cc32)cc1 (stereo not given)")
0.38
>>> quantitative_readout("COc1ccc(O[C@H]2C=C[C@@H](c3ccccc3)O[C@@H]2COC(=O)CCC(C)=NO[C@H](C)c2cn([C@@H]3COC[C@H]3O)nn2)cc1")
-0.411
>>> quantitative_readout("CC(C)c1ccc(NN2C(C(O)c3ccc4c(c3)OCO4)C=CC3C(=O)N(c4ccccc4)C(=O)C32)cc1 (stereo not given)")
0.103
>>> quantitative_readout("O[C@@H](Cc1ccccc1)[C@H]1C2C=CCCC(c3ccccc3)=C2CN1Cc1cccc(Cl)c1 (stereo not given in full)")
-0.0047
>>> quantitative_readout("CN(C)CCCNC(=O)[C@@H]1c2ccccc2C(=O)N(Cc2ccccc2)[C@H]1c1ccc(CO)cc1")
-0.363
>>> quantitative_readout("COc1ccc(-c2nc3c(c4c2C[C@H](C)OC4)CN(CCC(C)C)CC3)cc1")
-0.189
>>> quantitative_readout("CC(=O)OC[C@H]1O[C@@H](ON=C(C)CCN2CCc3nc(-c4ccccc4)c(-c4ccccc4)cc3C2)[C@H](OC(C)=O)[C@@H](OC(C)=O)[C@@H]1OC(C)=O")
0.21

Origin of measurements: PubChem BioAssay
